Molecular target: UniProt P21397
Sequence (P21397 whole entry): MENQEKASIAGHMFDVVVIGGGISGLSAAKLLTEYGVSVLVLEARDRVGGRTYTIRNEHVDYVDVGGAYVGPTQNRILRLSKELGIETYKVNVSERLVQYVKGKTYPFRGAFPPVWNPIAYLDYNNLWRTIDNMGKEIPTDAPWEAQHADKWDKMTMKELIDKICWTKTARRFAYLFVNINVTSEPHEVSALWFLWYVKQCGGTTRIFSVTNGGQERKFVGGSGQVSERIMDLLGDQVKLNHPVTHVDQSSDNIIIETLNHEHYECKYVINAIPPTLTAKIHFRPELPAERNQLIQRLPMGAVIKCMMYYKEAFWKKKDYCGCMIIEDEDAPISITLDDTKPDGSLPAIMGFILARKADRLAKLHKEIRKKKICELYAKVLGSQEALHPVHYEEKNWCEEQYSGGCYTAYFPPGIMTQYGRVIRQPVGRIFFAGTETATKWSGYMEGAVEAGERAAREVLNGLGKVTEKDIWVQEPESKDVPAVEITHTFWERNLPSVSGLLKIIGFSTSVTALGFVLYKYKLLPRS
Test: MAO-Glo luminescent assay with recombinant enzyme; Michaelis-Menten/Lineweaver-Burk kinetics (IC50 […])
parameter: Ki
Give me the value, and tack the unit on after it.

Q: Form field: reported Ki of `COc1cc2c(cc1CC=C(C)C)C(=O)C[C@@H](c1ccc(O)cc1)O2`
Ans: 95.3 µM

Ref: paper PMC4629031
